B1: LOXL2 (parent)
chain: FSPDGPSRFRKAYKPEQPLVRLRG

Variants of: B1
assay_explanation: protein stability index of a GFP-peptide fusion (GPS, HEK-293T) (PSI 1-6); higher = more stable;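 also: lentivirally expressed fusions sorted by FACS into six bins by GFP to DsRed ratio, PSI derived from sequencing read proportions per bin multiplied by bin number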
condition_details: c terminus: a fixed tail appended
property_name: protein stability index

seq: FGPDGPSRFRKAYKPEQPLVRLRG [S2G]
endpoint_result: 2.11

seq: FSPDGPSRFMKAYKPEQPLVRLRG [R10M]
endpoint_result: 2.1

seq: FSPDGPSRFRVAYKPEQPLVRLRG [K11V]
endpoint_result: 2.66

seq: FSPDGPSRFRKAYKPEQPNVRLRG [L19N]
endpoint_result: 1.22

seq: FSPDGPSWFRKAYKPEQPLVRLRG [R8W]
endpoint_result: 3.95

seq: RSPDGPSRFRKAYKPEQPLVRLRG [F1R]
endpoint_result: 4.12

seq: FSPDGPSRFRKAYCPEQPLVRLRG [K14C]
endpoint_result: 3.06
